Assayed target: human Argonaute-1 (human, UniProt Q9UL18 1-857)
Assay procedure: ITC
pKd: −log10 of the molar value.

{"Binder": "TVDNGTSAWGKPIDSGPSWGEP (peptide, UniProt Q8NDV7-2 820-841, looked up) [hGW182 (TNRC6A) hook motif]", "pKd": 6.42}

These measurements were taken from paper PMC5915679.
